- TARGET_OR_TEST_SYSTEM: T1, MUC1 on HCT116/MUC1 cells (UniProt P15941 24-1255, limits assumed)
- T1 construct: whole, on cells; also called MUC1 overexpressed cell line
- T1 sequence (P15941 24-1255 limits assumed): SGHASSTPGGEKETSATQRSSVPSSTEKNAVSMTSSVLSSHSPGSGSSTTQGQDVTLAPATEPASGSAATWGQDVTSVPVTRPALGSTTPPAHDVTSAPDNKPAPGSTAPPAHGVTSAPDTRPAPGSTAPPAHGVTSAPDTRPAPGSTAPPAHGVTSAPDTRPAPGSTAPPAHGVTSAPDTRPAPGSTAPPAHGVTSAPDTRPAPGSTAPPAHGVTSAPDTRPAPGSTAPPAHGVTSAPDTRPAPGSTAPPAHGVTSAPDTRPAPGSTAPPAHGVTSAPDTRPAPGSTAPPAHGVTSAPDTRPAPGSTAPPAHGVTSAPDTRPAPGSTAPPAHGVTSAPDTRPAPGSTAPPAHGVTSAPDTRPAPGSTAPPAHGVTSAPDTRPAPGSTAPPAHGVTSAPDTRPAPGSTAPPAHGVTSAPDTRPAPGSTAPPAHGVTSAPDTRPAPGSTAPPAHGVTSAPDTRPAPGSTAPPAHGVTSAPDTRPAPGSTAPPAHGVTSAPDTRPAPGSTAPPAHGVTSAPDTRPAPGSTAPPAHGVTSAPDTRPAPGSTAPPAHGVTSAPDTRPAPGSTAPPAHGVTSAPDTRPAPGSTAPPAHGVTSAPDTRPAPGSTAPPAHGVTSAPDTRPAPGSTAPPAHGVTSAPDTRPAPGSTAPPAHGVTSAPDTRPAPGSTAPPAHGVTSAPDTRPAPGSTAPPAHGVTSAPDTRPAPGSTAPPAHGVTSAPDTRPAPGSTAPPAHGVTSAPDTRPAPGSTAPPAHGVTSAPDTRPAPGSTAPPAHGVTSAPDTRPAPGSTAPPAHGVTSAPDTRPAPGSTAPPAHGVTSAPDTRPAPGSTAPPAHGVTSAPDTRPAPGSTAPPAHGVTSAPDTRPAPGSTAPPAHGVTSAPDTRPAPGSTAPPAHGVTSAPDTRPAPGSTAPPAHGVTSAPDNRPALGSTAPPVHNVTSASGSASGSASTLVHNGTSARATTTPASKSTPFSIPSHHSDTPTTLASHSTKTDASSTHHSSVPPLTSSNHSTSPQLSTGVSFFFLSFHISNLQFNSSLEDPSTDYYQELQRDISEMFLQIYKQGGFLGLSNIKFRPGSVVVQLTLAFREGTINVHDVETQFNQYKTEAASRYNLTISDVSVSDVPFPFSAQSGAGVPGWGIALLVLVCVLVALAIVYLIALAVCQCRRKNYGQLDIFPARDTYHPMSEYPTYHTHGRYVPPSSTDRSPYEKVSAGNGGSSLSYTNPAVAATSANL
- RUN_DESCRIPTION: FACS titration, HCT116/MUC1 cells, antibody at 7.812 nM
MEASUREMENT_NAME: geometric mean
Answers are plain numbers.

Given VH3 + VL4 (antibody, V domains shown, Humanized IgG expressed in HEK293; also called humanized antibody VH3+VL4) VH: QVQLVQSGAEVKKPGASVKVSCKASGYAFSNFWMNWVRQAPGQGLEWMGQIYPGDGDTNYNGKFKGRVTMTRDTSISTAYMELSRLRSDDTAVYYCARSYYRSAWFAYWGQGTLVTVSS VL: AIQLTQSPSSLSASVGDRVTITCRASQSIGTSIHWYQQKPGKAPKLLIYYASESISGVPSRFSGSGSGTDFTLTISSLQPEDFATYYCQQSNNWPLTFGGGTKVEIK , state its recorded geometric mean. 22.2
